Taken from paper PMC5454392.

system under test: T1, CaBdf1 BD2 (GST-tagged, wild-type) (Candida albicans (strain SC5314 / ATCC …, UniProt Q5A4W8))
T1 chain: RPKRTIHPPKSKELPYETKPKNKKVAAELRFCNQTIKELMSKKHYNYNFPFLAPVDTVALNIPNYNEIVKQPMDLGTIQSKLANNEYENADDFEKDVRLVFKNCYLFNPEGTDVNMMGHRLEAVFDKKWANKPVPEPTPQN
assay protocol: histone peptide array (Active Motif MODified), 1 uM GST-tagged bromodomain, anti-GST detection, normalized mean intensity
Square brackets hold non-standard residues; d marks the D form. Ends that are not written are not given here. Arg(Me2a) = CN(C)C(=N)NCCC[C@H](N)C(=O)O; pS = N[C@@H](COP(=O)(O)O)C(=O)O
assay readout: binding score

{"columns": ["binder", "value"],
 "data": [
  ["A[Arg(Me2a)]TK(Ac)QTARKSTGGKAPRKQ", 0.00148],
  ["ARTKQTARKSTGGKAPRKQ (A Rme2a T Kme3 Q T A Rme2a Kac S T G G K A P R K Q)", 0.00999],
  ["ARTKQTARKSTGGKAPRKQ (A Rme2a T Kac Q T A Rme2s Kme1 S T G G K A P R K Q)", 0.00296],
  ["[pS]GRGKQGGKARAKAKSRSS [H2a 1-19]", 0.00592]
]}
